- tested-system: human PD-1 stably expressed on Jurkat/IL-2 reporter cells (Jurkat/PD-1 cells) (human, UniProt Q15116 25-288)
- Sequence (Q15116 25-288): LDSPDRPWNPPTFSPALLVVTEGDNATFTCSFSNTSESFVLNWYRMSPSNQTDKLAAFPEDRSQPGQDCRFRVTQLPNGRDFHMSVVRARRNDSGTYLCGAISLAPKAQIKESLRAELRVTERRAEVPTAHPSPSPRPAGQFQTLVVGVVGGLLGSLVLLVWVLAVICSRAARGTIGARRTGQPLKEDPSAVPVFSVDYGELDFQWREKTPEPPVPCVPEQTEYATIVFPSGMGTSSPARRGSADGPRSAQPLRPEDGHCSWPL
- protocol: flow cytometry, Jurkat/PD-1 cells
measurement-name: Fold Increase over WT PD-L1 ECD-Fc (fold)
Give your result in fold as a bare value.

- variant PD-L1 ECD-Fc N45D, N113Y, R195S (Fc fusion, not shown: a dimerising Fc or GST) FTVTVPKDLYVVEYGSNMTIECKFPVEKQLDLAALIVYWEMEDKDIIQFVHGEEDLKVQHSSYRQRARLLKDQLSLGNAALQITDVKLQDAGVYRCMISYGGADYKRITVKVYAPYNKINQRILVVDPVTSEHELTCQAEGYPKAEVIWTSSDHQVLSGKTTTTNSKREEKLFNVTSTLRINTTTNEIFYCTFRSLDPEENHTAELVIPELPLAHPPNER: 22.4

*Q* Look up Fold Increase over WT PD-L1 ECD-Fc for this binder: variant PD-L1 ECD-Fc K28R, N45D, V129D, T163N, R195T (Fc fusion, not shown: a dimerising Fc or GST) FTVTVPKDLYVVEYGSNMTIECKFPVERQLDLAALIVYWEMEDKDIIQFVHGEEDLKVQHSSYRQRARLLKDQLSLGNAALQITDVKLQDAGVYRCMISYGGADYKRITVKVNAPYNKINQRILVVDPDTSEHELTCQAEGYPKAEVIWTSSDHQVLSGKTTNTNSKREEKLFNVTSTLRINTTTNEIFYCTFRTLDPEENHTAELVIPELPLAHPPNER
*A* 27.4
